Measured values drawn from PubChem BioAssay AID743284 for this set.

pIC50 values by entry
target.entity: UniProt:P24468
procedure.text: NR2F2 transcriptional activity inhibitors, potency, late-stage follow-up, cell-based, luciferase reporter, HEK293, powder samples, round 000 (AID 743284)
condition.summary: HEK293 NGFI-A luciferase reporter, luminescence
Worth noting: pIC50 values are minus log10 of concentrations stated in mol/L.

Please review the following examples before continuing.
molecule: Cc1ccc(S(=O)(=O)CC2CSc3nc4ccccc4n32)cc1 (stereo not drawn)
pIC50: 5.38
//
molecule: CCOC(=O)N1CCN(C(=O)CSCC(=O)Nc2nc(-c3ccc(-c4ccccc4)cc3)cs2)CC1
pIC50: 5.54
//
molecule: CC(=O)Nc1ccccc1OCC(=O)c1cc(C)n(Cc2cccs2)c1C
pIC50: 6.23
//
molecule: COc1ccc(NS(=O)(=O)c2ccc(-c3coc(C)n3)cc2)cc1OC
pIC50: 5.24
//
molecule: CCOc1cc(S(=O)(=O)NCc2ccncc2)ccc1Cl
pIC50: 5.69

Which pIC50 value belongs to `Cc1nn(C)c(C)c1CN(C)S(=O)(=O)c1ccc2ccccc2c1` ?
5.49

Check `COc1ccc(C2=Nn3c([n+](C)c4ccccc43)SC2)cc1` too.
5.32

How about CC1Cc2cc(-c3csc(NC(=O)Cc4cccs4)n3)ccc2N1S(C)(=O)=O (stereo not drawn) ?
5.64

* * *

target.entity: COUP transcription factor 2 (Homo sapiens) (UniProt P24468)
Sequence (P24468 whole entry, looked up): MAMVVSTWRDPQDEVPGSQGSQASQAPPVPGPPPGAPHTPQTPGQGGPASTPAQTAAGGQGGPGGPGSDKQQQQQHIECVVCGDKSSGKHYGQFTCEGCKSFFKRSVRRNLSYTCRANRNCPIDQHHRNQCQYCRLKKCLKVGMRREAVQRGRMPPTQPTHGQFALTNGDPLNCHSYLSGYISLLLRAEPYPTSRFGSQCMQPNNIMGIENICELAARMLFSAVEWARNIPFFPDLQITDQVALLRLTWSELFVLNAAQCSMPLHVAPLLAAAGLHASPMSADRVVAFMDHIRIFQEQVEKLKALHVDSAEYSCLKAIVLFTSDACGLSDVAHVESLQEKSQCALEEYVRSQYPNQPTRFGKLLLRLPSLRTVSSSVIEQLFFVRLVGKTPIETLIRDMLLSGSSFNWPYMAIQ
procedure.text: NR2F2 transcriptional activity inhibitors, potency, late-stage follow-up, cell-based, luciferase reporter, HEK293, powder samples, round 000 (AID 743284)
condition.summary: HEK293 NGFI-A luciferase reporter, luminescence
The source made the active and inactive calls.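 Rule for the calls: active = compounds whose fitted concentration for half-maximal reporter inhibition is 10 µM or lower; inactive = the rest.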
Mark one answer only. Choices: Yes (active), No (inactive)

Example results:
compound: CN(CC1CCCO1)S(=O)(=O)c1ccc(C(=O)Nc2nc3cc4c(cc3s2)OCO4)cc1 (stereo not given)
class.label: Yes
//
compound: COc1ccc(NS(=O)(=O)c2cccc(NC(=O)c3ccc(Cl)nc3)c2)cc1
class.label: Yes
//
compound: Cc1sc2ncnc(NCC3COc4ccccc4O3)c2c1C (stereo not given)
class.label: Yes
//
compound: O=S(=O)(NCC1CCCO1)c1ccc(-c2ccc(S(=O)(=O)NCC3CCCO3)cc2)cc1 (stereo not given)
class.label: Yes
//
compound: Cc1cc(C)c(S(=O)(=O)NCc2ccncc2)c(C)c1
class.label: Yes
//
compound: CCN(CC)S(=O)(=O)c1cccc(NC(=O)CNc2cccc(S(=O)(=O)N3CCCC3)c2)c1
class.label: Yes
//
compound: Cc1cc(-n2c(C)cc(C(=O)CSc3ncnc4ccccc34)c2C)no1
class.label: Yes
//
compound: Cc1cc(-n2nc3ccccc3n2)c2oc(SCC(=O)NC(C)(C)C)nc2c1
class.label: No

Which outcome was entered for the compound `COc1ccc(OC)c(CCNC(=O)Cn2nc(C)c3c(C)n(-c4ccc(C)cc4)nc3c2=O)c1` in this test?
Yes

Then `Cc1sc2ncnc(NCCc3ccc(S(N)(=O)=O)cc3)c2c1C` ?
Yes

* * *

target.entity: COUP transcription factor 2 (Homo sapiens) (UniProt P24468)
procedure.text: NR2F2 transcriptional activity inhibitors, potency, late-stage follow-up, cell-based, luciferase reporter, HEK293, powder samples, round 000 (AID 743284)
condition.summary: HEK293 NGFI-A luciferase reporter, luminescence
measurement.name: pIC50
The quantity pIC50 is defined as the negative base-10 logarithm of the molar concentration.

molecule: O=C(Nc1ccncc1)c1ccc(Cl)c(S(=O)(=O)N2CCc3ccccc32)c1
recorded.number: 5.41

Name the reported pIC50 value associated with the molecule `COc1ccc(CCNc2ncnc3sccc23)cc1OC`
5.75

Consider next the molecule CCOC(=O)C1CCCN(S(=O)(=O)c2ccc(S(=O)(=O)N(CC)CC)cc2)C1 (stereo not given) in the same way.
5.52

* * *

target.entity: COUP transcription factor 2 (Homo sapiens) (UniProt P24468)
procedure.text: NR2F2 transcriptional activity inhibitors, potency, late-stage follow-up, cell-based, luciferase reporter, HEK293, powder samples, round 000 (AID 743284)
condition.summary: HEK293 NGFI-A luciferase reporter, luminescence
measurement.name: IC50

compound: CCC1CCCCN1C(=O)c1cc(COc2ccc3ncccc3c2)on1 (configuration not stated)
result: 3.33 µM

Now let's try a different one.
# get_value(readout= IC50, system= COUP transcription factor 2 (Homo sapiens) (UniProt P24468)) for CC(Nc1ncnc2ccccc12)c1ccccc1 (configuration not stated)
4.97 µM

* * *

target.entity: UniProt:P24468
procedure.text: NR2F2 transcriptional activity inhibitors, potency, late-stage follow-up, cell-based, luciferase reporter, HEK293, powder samples, round 000 (AID 743284)
condition.summary: HEK293 NGFI-A luciferase reporter, luminescence
The entries below are paired with their reported IC50.

Reference set, count: 4
compound: COc1ccc(CCNc2ncnc3sc(C)cc23)cc1OC
result: 1490 nM
--
compound: COc1ccc(CN(C)c2ccc(S(=O)(=O)N3CCN(C)CC3)cc2[N+](=O)[O-])cc1OC
result: 2760 nM
--
compound: Cc1ccc(OCCN2CCN(c3ncnc4sc(C)c(C)c34)CC2)cc1
result: 3430 nM
--
compound: Cc1oc(-c2ccc(Cl)cc2)nc1CS(=O)CC(=O)NCCCN1CCN(Cc2ccccc2)CC1 (stereo not given)
result: 6240 nM

Moving on to the next compound.
Dear colleague, I am looking for the recorded IC50 of the following compound: Cn1nccc1C(=O)NC1CCCc2c1cnn2-c1ccc(C(C)(C)C)cc1 (stereo not given)
1380 nM
